target: Vasopressin V2 receptor (Homo sapiens, UniProt P30518); assay: Displacement of conivaptan-red fluorescent probe from SNAP-tagged human vasopressin V2 receptor expressed in HEK293 cells compound pre-illuminated for 10 mins with light at 435 nm and further incubated for 1 hr by HTRF assay; format: cell-based
Sequence (P30518 whole entry): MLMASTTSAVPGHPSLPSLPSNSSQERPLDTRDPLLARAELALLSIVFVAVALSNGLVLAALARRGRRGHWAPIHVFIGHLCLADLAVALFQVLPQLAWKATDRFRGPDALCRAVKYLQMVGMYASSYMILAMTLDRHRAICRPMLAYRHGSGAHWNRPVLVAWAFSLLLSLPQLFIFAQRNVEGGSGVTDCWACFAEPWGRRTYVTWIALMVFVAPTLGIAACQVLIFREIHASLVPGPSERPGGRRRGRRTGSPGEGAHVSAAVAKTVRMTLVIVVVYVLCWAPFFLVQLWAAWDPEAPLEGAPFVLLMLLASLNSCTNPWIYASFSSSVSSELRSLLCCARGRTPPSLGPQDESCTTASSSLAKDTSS
endpoint.label: Ki (nM)

Cc1cccc(/N=N/c2ccc(C(=O)N3Cc4cccn4Cc4ccccc43)c(Cl)c2)c1
355
O=C(c1ccc(/N=N/c2ccccc2-c2ccccc2)cc1Cl)N1Cc2cccn2Cc2ccccc21
279

[A] O=C(c1ccc(/N=N/c2ccccc2)cc1Cl)N1Cc2cccn2Cc2ccccc21
[B] O=C(c1ccc(/N=N/c2ccc(C(F)(F)F)cc2)cc1Cl)N1Cc2cccn2Cc2ccccc21
Challenge: Between A and B , which one shows the smaller Ki number? API: response body contains the label of the selected item.
Response given: A
(A: 289 nM, B: 589 nM)
